The reported measurements were obtained from the supplement of paper PMC6555819.

For each entry below, report its PBM binding z-score value.
test system: THRa homodimer (NR concentration 90 nM); test: PBM binding z-score (relative to random genomic background probes); higher = stronger binding; sequences stand for … in GC…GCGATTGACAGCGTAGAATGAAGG

>>> experimental_value("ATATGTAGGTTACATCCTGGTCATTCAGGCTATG")
0.551
>>> experimental_value("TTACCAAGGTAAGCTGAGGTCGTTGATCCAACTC")
1.61
>>> experimental_value("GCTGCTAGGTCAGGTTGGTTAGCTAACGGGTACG")
0.549
>>> experimental_value("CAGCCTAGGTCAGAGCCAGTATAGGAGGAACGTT")
0.271
>>> experimental_value("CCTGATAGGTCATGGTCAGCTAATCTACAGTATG")
0.212

Working through the 7 sequences below one at a time, give PBM binding z-score for each.
1. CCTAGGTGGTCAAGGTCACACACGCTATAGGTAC
2. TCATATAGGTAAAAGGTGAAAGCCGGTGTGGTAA
3. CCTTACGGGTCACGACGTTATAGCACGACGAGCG
4. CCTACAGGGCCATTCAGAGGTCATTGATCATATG
5. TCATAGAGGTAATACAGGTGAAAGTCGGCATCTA
6. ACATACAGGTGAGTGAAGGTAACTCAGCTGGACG
7. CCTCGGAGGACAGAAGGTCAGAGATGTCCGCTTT

Result:
1: 4.01; 2: 8.19e-05; 3: 0.181; 4: 1.34; 5: -0.345; 6: -0.215; 7: -0.116

Working through the 5 sequences below one at a time, give PBM binding z-score for each.
1. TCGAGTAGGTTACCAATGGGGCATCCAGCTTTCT
2. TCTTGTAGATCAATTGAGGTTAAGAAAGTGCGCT
3. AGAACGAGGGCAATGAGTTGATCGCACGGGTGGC
4. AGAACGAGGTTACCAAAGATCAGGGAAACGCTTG
5. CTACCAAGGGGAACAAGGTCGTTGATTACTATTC

Result:
1. -0.638
2. 0.878
3. -0.233
4. 0.23
5. 1

Working through the 6 sequences below one at a time, give PBM binding z-score for each.
1. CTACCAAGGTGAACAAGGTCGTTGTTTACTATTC
2. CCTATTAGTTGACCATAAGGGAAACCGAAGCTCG
3. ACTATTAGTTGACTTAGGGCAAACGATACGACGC
4. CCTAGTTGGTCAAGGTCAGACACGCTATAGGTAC
5. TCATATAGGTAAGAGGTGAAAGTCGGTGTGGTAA
6. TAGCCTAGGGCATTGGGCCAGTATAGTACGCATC

Result:
1: 1.76; 2: 0.494; 3: 0.149; 4: 2.57; 5: 0.894; 6: -0.611

Working through the 3 sequences below one at a time, give PBM binding z-score for each.
1. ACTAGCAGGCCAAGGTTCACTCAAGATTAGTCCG
2. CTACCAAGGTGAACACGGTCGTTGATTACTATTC
3. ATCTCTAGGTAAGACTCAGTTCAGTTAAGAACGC

Result:
0.0178
0.961
0.728
